Biological target: UniProtKB Q9H3R0
Sequence (Q9H3R0 whole entry, the tested form may be a part): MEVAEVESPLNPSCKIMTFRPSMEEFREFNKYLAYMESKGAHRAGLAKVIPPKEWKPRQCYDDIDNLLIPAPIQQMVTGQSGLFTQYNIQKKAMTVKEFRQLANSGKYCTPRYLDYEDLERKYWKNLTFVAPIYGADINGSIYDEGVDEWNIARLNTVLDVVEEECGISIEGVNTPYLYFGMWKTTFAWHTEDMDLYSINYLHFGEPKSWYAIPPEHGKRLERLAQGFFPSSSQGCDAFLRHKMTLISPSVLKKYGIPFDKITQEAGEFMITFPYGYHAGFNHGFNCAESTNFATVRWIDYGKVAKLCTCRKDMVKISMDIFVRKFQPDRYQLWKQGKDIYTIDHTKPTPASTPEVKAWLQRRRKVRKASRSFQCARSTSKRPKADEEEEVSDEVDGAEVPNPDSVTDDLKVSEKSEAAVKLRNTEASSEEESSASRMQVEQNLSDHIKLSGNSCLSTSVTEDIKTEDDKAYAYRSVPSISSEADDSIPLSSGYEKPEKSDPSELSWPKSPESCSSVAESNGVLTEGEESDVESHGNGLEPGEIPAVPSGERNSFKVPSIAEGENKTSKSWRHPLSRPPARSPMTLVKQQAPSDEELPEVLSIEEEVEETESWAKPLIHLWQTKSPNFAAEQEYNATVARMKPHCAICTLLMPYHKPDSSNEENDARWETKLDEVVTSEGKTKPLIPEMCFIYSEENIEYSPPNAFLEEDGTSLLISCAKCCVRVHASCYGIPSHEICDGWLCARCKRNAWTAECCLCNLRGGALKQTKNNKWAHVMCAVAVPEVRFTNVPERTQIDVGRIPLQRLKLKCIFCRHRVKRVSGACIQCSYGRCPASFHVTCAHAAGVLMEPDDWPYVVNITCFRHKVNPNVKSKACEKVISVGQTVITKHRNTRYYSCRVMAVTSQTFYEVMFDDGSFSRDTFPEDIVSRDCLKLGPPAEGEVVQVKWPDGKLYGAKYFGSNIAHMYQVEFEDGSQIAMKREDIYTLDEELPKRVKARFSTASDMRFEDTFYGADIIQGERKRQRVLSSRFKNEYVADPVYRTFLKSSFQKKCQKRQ
Experiment: Inhibition of recombinant N-terminal FLAG-tagged Tev-KDM4C (1 to 366 residues) (unknown origin) using […] as substrate preincubated for 10 mins followed by substrate addition by rapid fire demethylase assay
pIC50: −log10 of the molar value.
Provide the reported pIC50 of each item.

Smiles: Oc1nc(Oc2cnn(CCN3CCOCC3)c2)nc2cnccc12
pIC50: > 7.00

Smiles: CCS(=O)(=O)N1CC[C@H](n2cc(Oc3nc(O)c4ccncc4n3)cn2)C1
pIC50: > 7.00

Smiles: Cn1cnc(-c2nccc3c(O)nc(OCCCC(F)(F)F)nc23)c1
pIC50: 7.00

Next:
State the recorded pIC50 for this entry: `Oc1nc(Oc2cnn([C@@H]3CCCN(Cc4ccccc4)C3)c2)nc2cnccc12`
> 7.00

###

Molecular target: Lysine-specific demethylase 2B (Homo sapiens)
Assay: biochemical
Observation type: pIC50
Answers are plain numbers, as −log10 of the molar value.

Smiles: Cc1cc(Cl)ccc1COc1ccnn1-c1cc(C(=O)O)ccn1
pIC50: 7.00

// input: 2 compounds below; output: pIC50 for each
1. Cn1cnc(-c2cc(C(=O)O)ccn2)c1-c1ccc(OCC2CC2)cc1
2. COc1ccc(-c2c(-c3cc(C(=O)O)ccn3)ncn2C)cc1

[7.00, 7.00]

###

Target: Lysine-specific demethylase 2B (Homo sapiens)
Sequence (Q8NHM5 whole entry): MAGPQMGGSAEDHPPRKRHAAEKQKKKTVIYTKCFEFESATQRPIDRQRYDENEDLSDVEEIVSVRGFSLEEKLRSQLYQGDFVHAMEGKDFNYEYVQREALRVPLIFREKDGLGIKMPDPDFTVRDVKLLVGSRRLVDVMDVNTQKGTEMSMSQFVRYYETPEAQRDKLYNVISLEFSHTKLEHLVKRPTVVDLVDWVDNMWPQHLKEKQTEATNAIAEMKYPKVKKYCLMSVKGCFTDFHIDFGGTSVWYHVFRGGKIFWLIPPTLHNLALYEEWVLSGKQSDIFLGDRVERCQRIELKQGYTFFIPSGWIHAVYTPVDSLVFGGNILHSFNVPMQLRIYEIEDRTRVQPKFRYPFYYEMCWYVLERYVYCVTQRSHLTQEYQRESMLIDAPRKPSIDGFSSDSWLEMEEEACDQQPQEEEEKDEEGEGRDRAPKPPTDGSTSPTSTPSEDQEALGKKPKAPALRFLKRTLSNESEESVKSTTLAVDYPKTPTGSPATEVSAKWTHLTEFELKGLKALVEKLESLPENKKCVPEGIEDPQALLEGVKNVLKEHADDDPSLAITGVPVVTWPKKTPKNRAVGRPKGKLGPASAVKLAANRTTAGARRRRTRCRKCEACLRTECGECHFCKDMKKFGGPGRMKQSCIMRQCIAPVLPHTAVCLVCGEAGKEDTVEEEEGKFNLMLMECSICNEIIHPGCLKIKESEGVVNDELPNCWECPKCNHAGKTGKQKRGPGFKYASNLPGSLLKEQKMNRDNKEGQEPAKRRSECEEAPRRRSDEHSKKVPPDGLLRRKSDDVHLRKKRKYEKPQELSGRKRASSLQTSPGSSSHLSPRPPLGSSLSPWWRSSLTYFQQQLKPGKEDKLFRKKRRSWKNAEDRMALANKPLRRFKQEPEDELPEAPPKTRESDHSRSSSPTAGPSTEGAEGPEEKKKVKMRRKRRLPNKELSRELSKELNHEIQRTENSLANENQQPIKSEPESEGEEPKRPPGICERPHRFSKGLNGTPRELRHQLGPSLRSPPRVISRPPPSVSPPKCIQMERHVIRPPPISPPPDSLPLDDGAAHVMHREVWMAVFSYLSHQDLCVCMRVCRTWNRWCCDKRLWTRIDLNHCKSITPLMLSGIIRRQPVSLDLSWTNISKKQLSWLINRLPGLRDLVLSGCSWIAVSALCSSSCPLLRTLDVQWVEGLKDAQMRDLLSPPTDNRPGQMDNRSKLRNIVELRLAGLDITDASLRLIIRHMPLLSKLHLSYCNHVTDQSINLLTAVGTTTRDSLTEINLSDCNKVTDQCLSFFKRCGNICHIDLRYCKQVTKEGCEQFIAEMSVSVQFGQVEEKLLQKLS
Test: biochemical
pIC50: −log10 of the molar value.
Observation type: pIC50

Smiles: CCN(CCN(C)C)C(=O)CNCc1cc(CNC(=O)C(F)(F)F)ccn1
Data value: < 5.60

Smiles: CCN(CCN(C)C)C(=O)CNCc1cc(C(=O)OC)ccn1
Data value: < 6.00

Smiles: CCN1CCC[C@H](CNCc2cc(C(=O)O)ccn2)C1=O
Data value: > 6.60

Provide each entry's pIC50 from the list below.
1. CCN(CC)CCCCNCc1cc(C=O)ccn1
2. CCN(CCN(C)C)C(=O)CNCc1cc(C(=O)O)ccn1

1. < 5.60
2. 7.00

src = ChEMBL document CHEMBL3784917
